Cited source for all entries: patent US9102678B2

- Tested System: recombinant murine Aurora A enzyme (Mus musculus)
- Construct: hexahistidine (His6) (N); made in house; host or cells: insect cells, baculovirus (Bac-to-Bac, Invitrogen)
- Sequence (P97477 whole entry): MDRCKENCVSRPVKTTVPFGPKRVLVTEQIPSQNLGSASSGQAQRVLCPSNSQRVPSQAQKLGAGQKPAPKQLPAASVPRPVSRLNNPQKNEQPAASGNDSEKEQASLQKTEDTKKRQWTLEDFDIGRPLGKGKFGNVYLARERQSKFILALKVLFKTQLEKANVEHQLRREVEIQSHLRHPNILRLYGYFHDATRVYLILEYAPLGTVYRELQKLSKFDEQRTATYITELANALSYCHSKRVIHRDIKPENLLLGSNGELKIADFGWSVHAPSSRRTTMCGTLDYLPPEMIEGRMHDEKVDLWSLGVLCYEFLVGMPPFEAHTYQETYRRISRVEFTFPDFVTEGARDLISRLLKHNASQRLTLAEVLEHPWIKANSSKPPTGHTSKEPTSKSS
- Measurement Description: Aurora A DELFIA Kinase Assay
- Assay type: biochemical
- Condition Parameters: mouse Aurora A, 250 μM ATP; threshold less than or equal to 100 nM; read-out: IC50
pIC50: −log10 of the molar value.
The reader will find reported pIC50 values listed item by item below.

Study these solved cases before continuing.
O=C(c1ccc(Nc2ncc3c(n2)-c2ccc(Cl)cc2C(c2ccccc2F)=NC3)cc1)N1CCN(CCN2CCCC2)CC1 [Compound I-171]    ≥ 7.00
O=C(c1ccc(Nc2ncc3c(n2)-c2ccc(Cl)cc2C(c2ccccc2F)=NC3)cc1)N1CCN(CCCN2CCCCC2)CC1 [Compound I-181]    ≥ 7.00
COc1cccc(F)c1C1=NCc2cnc(Nc3ccc(C(=O)N4CCN(C)CC4)cc3)nc2-c2ccc(Cl)cc21 [Compound I-233]    ≥ 7.00

Prompt line: Let me know recorded pIC50 for O=C(c1ccc(Nc2ncc3c(n2)-c2ccc(Cl)cc2C(c2ccccc2F)=NC3)cc1)N1CCN(CCN2CCCCC2)CC1 [Compound I-182] , thanks.
Response line: ≥ 7.00

Prompt line: Let me know recorded pIC50 for CNC1CCN(C(=O)c2ccc(Nc3ncc4c(n3)-c3ccc(Cl)cc3C(c3c(F)cccc3Cl)=NC4)cc2)C1 (stereo not shown) [Compound I-327] , thanks.
Response line: ≥ 7.00

Prompt line: Let me know recorded pIC50 for CN(C)C1CN(C(=O)c2cccc(Nc3ncc4c(n3)-c3ccc(Cl)cc3C(c3c(F)cccc3F)=NC4)c2)C1 [Compound I-204] , thanks.
Response line: ≥ 7.00

Prompt line: Let me know recorded pIC50 for COc1ccccc1C1=NCc2cnc(Nc3ccc(C(=O)NCCCN4CCOCC4)cc3)nc2-c2ccc(Cl)cc21 [Compound I-32] , thanks.
Response line: ≥ 7.00
